- Tested on: COLO 205 colon
- method: NCI tumour cell line growth inhibition, 48 h
Recorded log10 of TGI by entry
Heads up: the numbers are on a log10 scale; they represent TGI in µM.

See these solved cases before continuing.
{"molecule": "COC(=O)C1(C(=O)OC)Cc2ccc(OC)cc2C2=C1C(=O)c1ccccc1C2=O", "log10 of TGI": 1.61}
{"molecule": "O=C(ON=C1c2ccccc2C(Br)C(Br)c2ccccc21)c1cc([N+](=O)[O-])cc([N+](=O)[O-])c1 (centres undefined)", "log10 of TGI": 1.60}
{"molecule": "C[C@H]1[C@H](C)CC[C@]2(CO)CC[C@]3(C)C(=CC[C@@H]4[C@@]5(C)CCCNC(C)(C)[C@@H]5CC[C@]43C)[C@H]12", "log10 of TGI": 0.54}
{"molecule": "CC(C)(C)n1cc(-c2ccnc(NCCCNS(=O)(=O)c3ccc(C(F)(F)F)cc3)c2)c(-c2cccc(O)c2)n1", "log10 of TGI": 0.58}
{"molecule": "CC(C)(C)OC(=O)N1CCN(CCn2cc(C(F)(F)F)c3c(Cl)ncnc32)CC1", "log10 of TGI": 1.58}

Prompt: Give log10 of TGI for CCN(CC)CCCCNc1c2ccccc2[n+](C)c2c1[nH]c1ccccc12 tested on COLO 205 colon.
Response: -0.01

Prompt: Return reported log10 of TGI for target or system COLO 205 colon, item Fc1ccc2c(c1)C1=NN(c3ccccc3)C(F)C1CO2 (centres undefined) .
Response: 1.49

====

- System: SNB-75 CNS
- method: NCI tumour cell line growth inhibition, 48 h; in the data active means GI50 below about 0.43 µM; inactive means the rest
Just give me one of these, please: Y (active), N (inactive)

Prompt: # lookup: test call for CC(C)(C)c1ccc(Oc2nccc(-c3c(-c4ccc(F)cc4)ncn3C3CCNCC3)n2)cc1
Response: N

====

- Test system: RPMI-8226 leukemia
- method: NCI tumour cell line growth inhibition, 48 h; in the data active = GI50 below about 0.43 µM; inactive = the rest
Log the outcome using a class from Yes (active), No (inactive)

Some solved entries appear below for comparison.
{"compound": "c1ccc2[nH]c(-c3ccc(-c4nccc5c4[nH]c4ccccc45)cc3)nc2c1", "answer label": "No"}
{"compound": "Cc1nn2c(/C=C3\\C(=O)Nc4ccc(Cl)cc43)c(C)nc2s1", "answer label": "No"}
{"compound": "C=C1CCC2C3(C)COC(c4ccc(N(C)C)cc4)OC3CCC2(C)C1C/C=C1/C(=O)OCC1O (centres undefined)", "answer label": "No"}
{"compound": "COc1ccc(C(=O)OC2C(OC3C(O)COC(O[C@H]4C[C@H]5[C@@H]6CC=C7C[C@@H](O)CC[C@]7(C)[C@H]6CC[C@]5(C)[C@H]4[C@H](C)C(=O)CCC(C)C)C3OC(N)=O)OCC(O)C2O)cc1 (some centres undefined)", "answer label": "Yes"}
{"compound": "O=C([CH-]C(=O)c1ccccc1)c1ccccc1.O=C([CH-]C(=O)c1ccccc1)c1ccccc1.[La+3].[OH-].[OH3+]", "answer label": "No"}

Prompt: What outcome does the record of this test show for CN[C@@H](C)C(=O)N[C@H](C(=O)N1CCC[C@H]1C(=O)Nc1snnc1-c1ccccc1)C1CCCCC1 ?
Response: No

Prompt: Which outcome did this test record for the compound Cc1cc(O)c(C(C)C)cc1S(=O)(=O)O (tested in a mixture with another compound) ?
Response: Yes

Prompt: Dear all, I need the recorded test outcome for COc1ccc2c(c1)c(=O)oc1cc(OC/C(C)=N\O)ccc12 , thank you.
Response: No

Prompt: Identify the outcome logged in this assay for the compound shown: C=C(C)C(=O)O[C@H]1CC(=C)[C@@H]2C[C@H](O)[C@](O)(CCl)[C@@H]2[C@H]2OC(=O)C(=C)[C@@H]21
Response: No

Prompt: Short answer needed: outcome of this test for Cc1cc2c(cc1C)N(C(=O)CCl)CC(=O)N2 ?
Response: No

Prompt: In this assay, the call recorded for COc1ccc(C(=O)c2cc(OC)c(OC)c(OC)c2)cc1OC(=O)CCl was what?
Response: Yes

Prompt: What was the test verdict on CC(C)(C)OC(=O)N1CCN(CCn2cc(C(F)(F)F)c3c(Cl)ncnc32)CC1 ?
Response: No

Prompt: Assay result, entry Nc1c(C(=O)c2cccc(-c3ccncc3)c2)cnn1-c1ccc(F)cc1F — outcome?
Response: No

Prompt: For COc1ccc(-c2cc(=O)[nH]c3c(OC)c4ccccc4c(OC)c23)cc1 , which call appears in the assay record?
Response: Yes

====

- System: MCF7 breast
- method: NCI tumour cell line growth inhibition, 48 h
The compounds listed here are annotated with their TGI.
Field: numeric (µM). Do not append units.

Worked examples, 3 compounds total:
{"compound": "CC/C=C1/C(=O)C=C[C@@H]1C/C=C\\CCCC(=O)OC", "unit abbrev": "µM", "observed measurement": 11}
{"compound": "CC1C2(C)OC(=N)C(C#N)(C(c3ccccc3)O2)C1(C#N)C#N (configuration not stated)", "unit abbrev": "µM", "observed measurement": 49.3}
{"compound": "C[C@H]1[C@H](C)CC[C@]2(CO)CC[C@]3(C)C(=CC[C@@H]4[C@@]5(C)CCCNC(C)(C)[C@@H]5CC[C@]43C)[C@H]12", "unit abbrev": "µM", "observed measurement": 3.39}

Moving on to the next compound.
Prompt: Supply reported TGI belonging to this compound: CC1CCC(NC(=O)N(CCCl)N=O)CC1 (configuration not stated)
Response: 110

====

- System: HL-60(TB) leukemia
- method: NCI tumour cell line growth inhibition, 48 h
measured property: TGI (µM)
# number only, unit µM dropped from output

Previously resolved entries follow.
{"molecule": "Cc1c(C(N)=O)sc2c1C(=O)N(Cc1ccccc1)C1=NN=C(c3ccc(Cl)cc3)CN12", "TGI / µM": 46.1}
{"molecule": "Cc1ccc(S(=O)(=O)OC2CSS(=O)CC2OS(=O)(=O)c2ccc(C)cc2)cc1 (stereo unspecified)", "TGI / µM": 28.3}

Please find the next molecule below.
Prompt: For Cc1cccc(C)c1NC(=O)C(C#N)C1=C(Cl)C(=O)c2ccccc2C1=O (stereo unspecified) , write its TGI.
Response: 38.2

====

- System: CCRF-CEM leukemia
- method: NCI tumour cell line growth inhibition, 48 h
Consider the following compounds and their measured TGI readings.

{"compound": "COc1ccc(-c2cc(=O)[nH]c3c(OC)c4ccccc4c(OC)c23)cc1", "study target": "CCRF-CEM leukemia", "measured property": "TGI", "observed measurement": "> 100 µM"}
{"compound": "Clc1ccc(C2SCc3nc4ccccc4n32)c(Cl)c1 (stereo unspecified)", "study target": "CCRF-CEM leukemia", "measured property": "TGI", "observed measurement": "40.8 µM"}
{"compound": "O=C(O)c1cc([N+](=O)[O-])cc2c(=O)c3cnccc3[nH]c12", "study target": "CCRF-CEM leukemia", "measured property": "TGI", "observed measurement": "> 100 µM"}

Prompt: Return reported TGI. Input compound: COc1ccc2n[se]nc2c1
Response: > 100 µM

Prompt: Could you please provide reported TGI for O=C(ON=C1c2ccccc2C(Br)C(Br)c2ccccc21)c1cc([N+](=O)[O-])cc([N+](=O)[O-])c1 (stereo unspecified) ? Thanks!
Response: 3.65 µM

Prompt: Supply measured TGI of CCCCOC(=O)C1C2CCC(O2)C1C(=O)OCCCC (stereo unspecified) in your reply.
Response: > 100 µM

Prompt: Note TGI for the compound shown: NC(N)=N/N=C/c1c(-c2ccc(Cl)cc2)nc2sccn12
Response: 4.23 µM

====

- Tested on: HL-60(TB) leukemia
- method: NCI tumour cell line growth inhibition, 48 h; in the data active = GI50 below about 0.43 µM; inactive = the rest
Answer with one of the outcomes given here: label 1 (active), label 0 (inactive)

Prompt: Short answer needed: outcome of this test for CCC[CH2][Sn]1([CH2]CCC)[O]C(=O)c2cccnc2[O]1 ?
Response: label 0

====

Recorded TGI by entry
- Test system: MCF7 breast
- method: NCI tumour cell line growth inhibition, 48 h
Numbers only here, please. The scale is µM.

Examples with answers:
{"compound": "Cc1cc(O)c(C(C)C)cc1S(=O)(=O)O (tested in a mixture with another compound)", "unit abbrev": "µM", "observed measurement": 1.57}
{"compound": "CCOC(=O)C1=C(C)OC2(O)C=CC(O)=C3C(=O)N(c4ccccc4)C(=O)C312 (stereo not given)", "unit abbrev": "µM", "observed measurement": 79.4}
{"compound": "COc1cc2ccc(/C=C\\[N+](=O)[O-])cc2cc1OC", "unit abbrev": "µM", "observed measurement": 7.06}

Prompt: Give TGI for the following compound: CCCCCCCCCCCCCCCCCCOc1ccccc1CC(=O)OCC[N+]1(C)CCCCC1
Response: 4.97

Prompt: Using known records, supply TGI for C=CCOc1cccc(C2(O)c3ccccc3C3=NCCCN32)c1 (stereo not given)
Response: 32
